Listed next: entries and their corresponding T/C.
tested on: L1210 leukemia ip in BDF1 mice, survival T/C; test: NCI In Vivo Anticancer Drug Screen. Data for tumor model L1210 Leukemia (intraperitoneal) in B6D2F1 (BDF1) mice; settings: endpoint: mean survival time; dose: 50.0 mg/kg/injection; schedule: Q01DX001 (ip); vehicle: carboxymethylcellulose (CMC); higher = longer survival
Inconclusive results and toxic doses are left out.

Some entries whose results are on file:
[
  {
    "compound": "CC(=O)OC(c1ccnc2ccccc12)C1CC2CCN1CC2 (stereo not given)",
    "assay.value": "97 % of control"
  },
  {
    "compound": "CC(C)C1(NC(=O)C2C=C3c4cccc5[nH]cc(c45)CC3N(C)C2)OC2(O)C3CCCN3C(=O)C(Cc3ccccc3)N2C1=O (stereo not given)",
    "assay.value": "93 % of control"
  },
  {
    "compound": "COc1cc(NC(=O)N(CCCl)N=O)cc(OC)c1OC",
    "assay.value": "106 % of control"
  },
  {
    "compound": "COc1cc(C2c3c(cc(OC)c(O)c3OC)C=C(C(=O)O)C2CO)cc(OC)c1O (stereo not given)",
    "assay.value": "94 % of control"
  },
  {
    "compound": "C=CC(O)CCCCCC (stereo not given)",
    "assay.value": "97 % of control"
  }
]

Exam item: Quick check: T/C of `O=C1C(=O)c2ccccc2C(O)=C1c1ccc(Br)cc1` ?
Marked response: 120 % of control

Exam item: Quick check: T/C of `Cn1c2ccccc2c(=O)c2c(O)cc3c(c21)C=CC(C)(C)O3` ?
Marked response: 98 % of control

Exam item: Quick check: T/C of `Cc1ccc(I)c([N+](=O)[O-])c1` ?
Marked response: 96 % of control

Exam item: Quick check: T/C of `C(/CCc1ccccc1)=N\Nc1nnc(N/N=C/CCc2ccccc2)c2ccccc12` ?
Marked response: 102 % of control

Exam item: Quick check: T/C of `C[C@]12CC[C@H](O)C[C@H]1CC[C@@H]1[C@@H]2CC[C@]2(C)[C@@H](C3=CC(=O)OC3)CC[C@]12O` ?
Marked response: 101 % of control

---

system: L1210 leukemia ip in BDF1 mice, survival T/C; experiment: NCI In Vivo Anticancer Drug Screen. Data for tumor model L1210 Leukemia (intraperitoneal) in B6D2F1 (BDF1) mice; settings: endpoint: mean survival time; dose: 400.0 mg/kg/injection; schedule: Q01DX001 (ip); vehicle: other; higher = longer survival
Inconclusive results and toxic doses are left out.
observable: T/C

Some entries whose results are on file:
[
  {
    "compound": "Brc1ccc(N2N=C(c3ccccc3)N(c3ccc(Br)cc3)N=C2c2ccccc2)cc1",
    "measurement.target": "L1210 leukemia ip in BDF1 mice, survival T/C",
    "T/C": "95 % of control"
  },
  {
    "compound": "Nc1nc(N)c2cc(CNc3ccc(C(=O)NC(CC(=O)O)CC(=O)O)cc3)ccc2n1",
    "measurement.target": "L1210 leukemia ip in BDF1 mice, survival T/C",
    "T/C": "107 % of control"
  },
  {
    "compound": "CC(C)C(=O)Nc1cc(Cl)ccc1Cl",
    "measurement.target": "L1210 leukemia ip in BDF1 mice, survival T/C",
    "T/C": "92 % of control"
  },
  {
    "compound": "CC(=O)n1c(O)c(N=Nc2ccccc2[N+](=O)[O-])c2ccccc21",
    "measurement.target": "L1210 leukemia ip in BDF1 mice, survival T/C",
    "T/C": "98 % of control"
  },
  {
    "compound": "N=C1SCc2ccc3ccccc3c21",
    "measurement.target": "L1210 leukemia ip in BDF1 mice, survival T/C",
    "T/C": "97 % of control"
  }
]

Exam item: Quick check: T/C of CC1=CC(=O)C(C(C)C)C1 (stereo not drawn) ?
Marked response: 95 % of control

Exam item: Quick check: T/C of CC1=C(C)CC(c2ccccc2)C(C(=O)O)C1 (stereo not drawn) ?
Marked response: 101 % of control

Exam item: Quick check: T/C of `ClCCN1CCOC1=Nc1ccccc1` ?
Marked response: 100 % of control

---

tested on: L1210 leukemia ip in BDF1 mice, survival T/C; assay: NCI In Vivo Anticancer Drug Screen. Data for tumor model L1210 Leukemia (intraperitoneal) in B6D2F1 (BDF1) mice; settings: endpoint: mean survival time; dose: 400.0 mg/kg/injection; schedule: Q04DX002 (ip); vehicle: saline with Tween-80; higher = longer survival
Inconclusive results and toxic doses are left out.
observable: T/C

Some entries whose results are on file:
[
  {
    "molecule": "COC1CCC(/C=C(\\C#N)C2CCC(C)CC2)CC1 (stereo unspecified)",
    "assay.value": "94 % of control"
  },
  {
    "molecule": "CCc1ccc(C(=O)c2ccccc2)c2c1C(=O)c1ccccc1C2=O",
    "assay.value": "102 % of control"
  },
  {
    "molecule": "[O]=[Sn]([OH])[c]1ccccc1",
    "assay.value": "94 % of control"
  },
  {
    "molecule": "CC1CC(C)(C)N=C(CCCO)O1 (stereo unspecified)",
    "assay.value": "100 % of control"
  },
  {
    "molecule": "Oc1ccccc1/C=N\\Sc1ccc(Br)cc1",
    "assay.value": "94 % of control"
  }
]

In the following, a different molecule is considered.
Exam item: Quick check: T/C of `Cc1ccc(NC(=O)OCC(F)(F)C(F)(F)C(F)(F)F)c(NC(=O)OCC(F)(F)C(F)(F)C(F)(F)F)c1` ?
Marked response: 112 % of control

---

system: L1210 leukemia ip in BDF1 mice, survival T/C; experiment: NCI In Vivo Anticancer Drug Screen. Data for tumor model L1210 Leukemia (intraperitoneal) in B6D2F1 (BDF1) mice; conditions: endpoint: mean survival time; dose: 100.0 mg/kg/injection; schedule: Q01DX001 (ip); vehicle: saline with Tween-80; higher = longer survival
Inconclusive results and toxic doses are left out.
observable: T/C

Some entries whose results are on file:
[
  {
    "mol.smiles": "CC(=O)Nn1cnc2c(=S)nc[nH]c21",
    "T/C": "101 % of control"
  },
  {
    "mol.smiles": "O=C(O)c1ccsc1C(=O)c1ccccc1",
    "T/C": "105 % of control"
  },
  {
    "mol.smiles": "O=c1[nH]cnc2[nH]ncc12",
    "T/C": "105 % of control"
  },
  {
    "mol.smiles": "CCCCCSc1cccc(N)c1",
    "T/C": "112 % of control"
  },
  {
    "mol.smiles": "O=C(O)c1c(F)c(F)c(-c2c(F)c(F)c(C(=O)O)c(F)c2F)c(F)c1F",
    "T/C": "93 % of control"
  },
  {
    "mol.smiles": "O=C(NCc1ccco1)Nc1ccc(Cl)cc1",
    "T/C": "101 % of control"
  },
  {
    "mol.smiles": "CC(C)/C=N/NC(=O)CCCCCCCCC(=O)N/N=C/C(C)C",
    "T/C": "97 % of control"
  },
  {
    "mol.smiles": "CCOC(=O)Nc1cc(NCCCCc2ccccc2)c(N)c(N)n1",
    "T/C": "101 % of control"
  }
]

In the following, a different molecule is considered.
Exam item: Quick check: T/C of `O=[N+]([O-])c1ccc(Oc2ccc(Cl)cc2Cl)c([N+](=O)[O-])c1` ?
Marked response: 103 % of control

---

Listed next: entries and their corresponding T/C.
test system: L1210 leukemia ip in BDF1 mice, survival T/C; test: NCI In Vivo Anticancer Drug Screen. Data for tumor model L1210 Leukemia (intraperitoneal) in B6D2F1 (BDF1) mice; settings: endpoint: mean survival time; dose: 200.0 mg/kg/injection; schedule: Q01DX001 (ip); vehicle: saline; higher = longer survival
Inconclusive results and toxic doses are left out.

Some entries whose results are on file:
[
  {
    "compound": "O=C(Nc1ccc(Br)cc1)c1ccc(C(=O)Nc2ccc(Br)cc2)cc1",
    "measurement.target": "L1210 leukemia ip in BDF1 mice, survival T/C",
    "T/C": "100 % of control"
  },
  {
    "compound": "COc1ccc(/C=C(\\SS/C(=C/c2ccc(OC)cc2)C(=O)O)C(=O)O)cc1",
    "measurement.target": "L1210 leukemia ip in BDF1 mice, survival T/C",
    "T/C": "94 % of control"
  },
  {
    "compound": "CC(=O)c1ccccc1OC(F)(F)C(F)Cl (configuration not stated)",
    "measurement.target": "L1210 leukemia ip in BDF1 mice, survival T/C",
    "T/C": "103 % of control"
  },
  {
    "compound": "O=C(CN1C(=O)c2ccccc2C1=O)NCC(=O)Nc1ccccc1",
    "measurement.target": "L1210 leukemia ip in BDF1 mice, survival T/C",
    "T/C": "104 % of control"
  },
  {
    "compound": "N#CC(C#N)=C1CCCc2sccc21",
    "measurement.target": "L1210 leukemia ip in BDF1 mice, survival T/C",
    "T/C": "95 % of control"
  }
]

Exam item: Quick check: T/C of `CCOC(=O)c1cnc(NCC(C)(C)C)[nH]c1=O` ?
Marked response: 91 % of control

Exam item: Quick check: T/C of `CS(=O)(=O)OCCC(=O)NCCCCNC(=O)CCOS(C)(=O)=O` ?
Marked response: 117 % of control

Just for reference, PubChem BioAssay AID248 is where these values come from.
